# Tested on: Adhesion of guinea pig peritoneal cells to HUVECs
# Test protocol: Cell adhesion of guinea pig peritoneal cells to human umbilical vein-derived endothelial cells (HUVECs)
# Assay type: cell-based
# Assay setup: Cavia porcellus, HUVEC; leukotriene B4 1 μM; read-out: concentration necessary for 50% inhibition (IC50 values, μM) of adhesion
Measured quantity: IC50

## Input State its IC50: COc1ccccc1NC(=O)NC1N=C(c2ccc(Cl)cc2)c2c(sc(C)c2C)-n2c(C)nnc21 (racemic)
## Output ~0.2 µM

This collection of values is drawn from patent US5721231A.
